Reference for the values: patent US7754689B2

- systemTested: T1, BMP-12 (UniProt Q7Z4P5 322-450, limits assumed)
- T1 construct: also called BMP12/GDF7
- T1 sequence (looked up): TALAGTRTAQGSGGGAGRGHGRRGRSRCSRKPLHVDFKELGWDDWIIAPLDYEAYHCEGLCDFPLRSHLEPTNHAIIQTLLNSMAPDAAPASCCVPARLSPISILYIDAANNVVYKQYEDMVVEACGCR
- experimentDescription: peptide resin, filter plate; load 3: 25 mM Na Acetate pH 5.0
No end group written: not given here.
measuredAttribute: 100 mM HAc elution conc

Asked: Sample Ac-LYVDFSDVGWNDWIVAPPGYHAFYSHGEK [BMP2 Full peptide 747] — what was its 100 mM HAc elution conc?
Given back: 0.274 mg/mL

Asked: Sample Ac-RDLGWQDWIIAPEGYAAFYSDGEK [BMP5 peptide 748] — what was its 100 mM HAc elution conc?
Given back: 0.264 mg/mL

Asked: Sample Ac-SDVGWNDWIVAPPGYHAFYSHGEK [BMP2 N-trun 1S peptide 751] — what was its 100 mM HAc elution conc?
Given back: 0.285 mg/mL

Asked: Sample Ac-LYVSDVGWNDWIVK (not fully specified (residue 3); printed as Ac-LYV**SDVGWNDWIVK; also: ** after V3 not explained) [BMP2 C-trunc_2 peptide 746] — what was its 100 mM HAc elution conc?
Given back: 0.296 mg/mL
